test: Half life in CD-1 mouse at 50 mg/kg, ip incubated upto 24 hrs by LC-MS/MS analysis; type: ADME, organism-based; conditions: in vivo
Readout: half-life

Query: What value of measured half-life is listed for `CN1CCC(NC(=O)OCC#Cc2cc(F)c(OCc3nnc(S[C@H]4C=CCCC4)n3-c3cccnc3)cc2F)CC1` ?
Response: 1.6 h

---

assay: Half life in CD-1 mouse at 5 mg/kg, iv incubated upto 24 hrs by LC-MS/MS analysis; assay type: ADME, organism-based; conditions: in vivo
Readout: half-life (min)
Write the answer as a number in min, unit excluded.

Query: What value of measured half-life is listed for `CN1CCC(NC(=O)OCC#Cc2cc(F)c(OCc3nnc(S[C@H]4C=CCCC4)n3-c3cccnc3)cc2F)CC1` ?
Response: 41.4

---

assay: AUClast in CD-1 mouse at 50 mg/kg, po incubated upto 24 hrs by LC-MS/MS analysis; assay type: ADME, organism-based; parameters: time < 24 hrs, dose 50 mg/kg, route po; conditions: in vivo
Readout: AUC(0-t) at 24 h

Query: What value of measured AUC(0-t) at 24 h is listed for `CN1CCC(NC(=O)OCC#Cc2cc(F)c(OCc3nnc(S[C@H]4C=CCCC4)n3-c3cccnc3)cc2F)CC1` ?
Response: 601 ng·h/mL

---

Consider the following compounds and their measured half-life at […], 1 µM readings.
assay: Metabolic stability in mouse liver microsome assessed as half life at 1 uM incubated upto 45 mins in presence of NADPH-regenerating system by LC-MS analysis; assay type: ADME; details: liver microsomes
Write the answer as a number in min, unit excluded.

In the examples that follow, each entry is paired with its recorded half-life at […], 1 µM.
CN1CCC(NC(=O)OCC#Cc2cc(F)c(OCc3nnc(SC4C=CCCC4)n3-c3cccnc3)cc2F)CC1 (centres undefined)	3
Cc1cc(OCc2nnc(SC3C=CCCC3)n2-c2cccnc2)ccc1C#CCNC1CCN(C)CC1 (centres undefined)	8
Cc1cc(OCc2nnc(SC3C=CCCC3)n2-c2cccnc2)ccc1C#CCOC(=O)NC1CCN(C)CC1 (centres undefined)	7

Next item in the queue.
Query: What value of measured half-life at […], 1 µM is listed for Cc1cc(OCc2nnc(SC3C=CCCC3)n2-c2cccnc2)ccc1C#CCN (centres undefined) ?
Response: 24

---

assay: AUClast in CD-1 mouse at 50 mg/kg, ip incubated upto 24 hrs by LC-MS/MS analysis; type: ADME, organism-based; set-up: time < 24 hrs, dose 50 mg/kg, route ip; conditions: in vivo
Readout: AUC(0-t) at 24 h (ng·h/mL)
Write the answer as a number in ng·h/mL, unit excluded.

Query: What value of measured AUC(0-t) at 24 h is listed for `CN1CCC(NC(=O)OCC#Cc2cc(F)c(OCc3nnc(S[C@H]4C=CCCC4)n3-c3cccnc3)cc2F)CC1` ?
Response: 9290

---

Consider the following compounds and their measured pIC50 readings.
target: Transitional endoplasmic reticulum ATPase (Homo sapiens)
Please treat pIC50 as minus the base-10 logarithm of the molar concentration.

In the examples that follow, each entry is paired with its recorded pIC50.
Cc1cc(OCc2nnc(SC3C=CCCC3)n2-c2cccnc2)ccc1C#CCO (configuration not stated)	7.40
Cc1cc(OCc2nnc(SC3C=CCCC3)n2-c2cccnc2)ccc1C#CCOC(=O)NCCN1CCN(C)CC1 (configuration not stated)	7.68
CN1CCC(NC(=O)OCC#Cc2c(F)cc(OCc3nnc(SC4C=CCCC4)n3-c3cccnc3)cc2F)CC1 (configuration not stated)	7.96

Query: API: value(readout= pIC50, system= Transitional endoplasmic reticulum ATPase (Homo sapiens), query= `COCCSc1nnc(COc2ccc(-c3ccc(S(C)(=O)=O)cc3)c(C)c2)n1-c1cccnc1` )
Response: 5.70

Query: Entry CCC(=O)NCC#Cc1ccc(OCc2nnc(SC3C=CCCC3)n2-c2cccnc2)cc1C (configuration not stated) please
Response: 7.49

Query: Entry `Cc1cc(OCc2nnc(SC3CCOCC3)n2-c2cccnc2)ccc1-c1ccc(S(C)(=O)=O)cc1` please
Response: 6.34

---

molecular target: Transitional endoplasmic reticulum ATPase (Homo sapiens); assay: Inhibition of p97 in human HeLa cells expressing UbG76V-GFP/ODD-Luc assessed as accumulation of Ub-GFP incubated for 6 hrs by confocal microscopic analysis
Readout: EC50

[2H]C1([2H])C([2H])([2H])C([2H])([2H])C([2H])(Sc2nnc(COc3cc(F)c(C#CCOC(=O)NC4CCN(C)CC4)cc3F)n2-c2cccnc2)C1([2H])[2H]	0.64 µM
Cc1cc(OCc2nnc(SC3C=CCCC3)n2-c2cccnc2)ccc1-c1ccc(S(C)(=O)=O)cc1 (stereo not drawn)	0.94 µM
Cc1cc(OCc2nnc(SC3C=CCCC3)n2-c2cccnc2)ccc1C#CCOC(=O)NC1CCN(C)CC1 (stereo not drawn)	0.82 µM
Cc1cc(OCc2nnc(SC3CCOCC3)n2-c2cccnc2)ccc1-c1ccc(S(C)(=O)=O)cc1	47 µM
Cc1cc(OCc2nnc(SC3CCNCC3)n2-c2cccnc2)ccc1-c1ccc(S(C)(=O)=O)cc1	> 40 µM

Query: API: value(readout= EC50, system= Transitional endoplasmic reticulum ATPase (Homo sapiens), query= Cc1cc(OCc2nnc(SC3CCCC=C3F)n2-c2cccnc2)ccc1-c1ccc(S(C)(=O)=O)cc1 (stereo not drawn) )
Response: > 40 µM

Query: Entry `COCCSc1nnc(COc2ccc(-c3ccc(S(C)(=O)=O)cc3)c(C)c2)n1-c1cccnc1` please
Response: > 40 µM

Query: Entry Cc1cc(OCc2nnc(SC3C=CCCC3)n2-c2cccnc2)ccc1C#CCOC(=O)NCCN1CCN(C)CC1 (stereo not drawn) please
Response: 0.89 µM

---

assay: Cmax in CD-1 mouse at 50 mg/kg, ip incubated upto 24 hrs by LC-MS/MS analysis; type: ADME, organism-based; design: time < 24 hrs, dose 50 mg/kg, route ip; conditions: in vivo
Readout: Cmax (ng/mL)
Write the answer as a number in ng/mL, unit excluded.

Query: What value of measured Cmax is listed for `CN1CCC(NC(=O)OCC#Cc2cc(F)c(OCc3nnc(S[C@H]4C=CCCC4)n3-c3cccnc3)cc2F)CC1` ?
Response: 12700

---

assay: AUClast in CD-1 mouse at 5 mg/kg, iv incubated upto 24 hrs by LC-MS/MS analysis; type: ADME, organism-based; set-up: dose 5 mg/kg, time < 24 hrs, route iv; settings: in vivo
Readout: AUC(0-t) at 24 h (ng·h/mL)
Write the answer as a number in ng·h/mL, unit excluded.

Query: What value of measured AUC(0-t) at 24 h is listed for `CN1CCC(NC(=O)OCC#Cc2cc(F)c(OCc3nnc(S[C@H]4C=CCCC4)n3-c3cccnc3)cc2F)CC1` ?
Response: 371

---

experiment: Clearance in CD-1 mouse at 5 mg/kg, iv incubated upto 24 hrs by LC-MS/MS analysis; type: ADME, organism-based; conditions: in vivo
Readout: clearance

Query: What value of measured clearance is listed for `CN1CCC(NC(=O)OCC#Cc2cc(F)c(OCc3nnc(S[C@H]4C=CCCC4)n3-c3cccnc3)cc2F)CC1` ?
Response: 234 mL/min/kg

---

target: Transitional endoplasmic reticulum ATPase (Homo sapiens, UniProt P55072); assay: Inhibition of p97 in human HeLa cells expressing UbG76V-GFP/ODD-Luc assessed as accumulation of Ub-GFP incubated for 6 hrs by confocal microscopic analysis
Sequence (P55072 whole entry): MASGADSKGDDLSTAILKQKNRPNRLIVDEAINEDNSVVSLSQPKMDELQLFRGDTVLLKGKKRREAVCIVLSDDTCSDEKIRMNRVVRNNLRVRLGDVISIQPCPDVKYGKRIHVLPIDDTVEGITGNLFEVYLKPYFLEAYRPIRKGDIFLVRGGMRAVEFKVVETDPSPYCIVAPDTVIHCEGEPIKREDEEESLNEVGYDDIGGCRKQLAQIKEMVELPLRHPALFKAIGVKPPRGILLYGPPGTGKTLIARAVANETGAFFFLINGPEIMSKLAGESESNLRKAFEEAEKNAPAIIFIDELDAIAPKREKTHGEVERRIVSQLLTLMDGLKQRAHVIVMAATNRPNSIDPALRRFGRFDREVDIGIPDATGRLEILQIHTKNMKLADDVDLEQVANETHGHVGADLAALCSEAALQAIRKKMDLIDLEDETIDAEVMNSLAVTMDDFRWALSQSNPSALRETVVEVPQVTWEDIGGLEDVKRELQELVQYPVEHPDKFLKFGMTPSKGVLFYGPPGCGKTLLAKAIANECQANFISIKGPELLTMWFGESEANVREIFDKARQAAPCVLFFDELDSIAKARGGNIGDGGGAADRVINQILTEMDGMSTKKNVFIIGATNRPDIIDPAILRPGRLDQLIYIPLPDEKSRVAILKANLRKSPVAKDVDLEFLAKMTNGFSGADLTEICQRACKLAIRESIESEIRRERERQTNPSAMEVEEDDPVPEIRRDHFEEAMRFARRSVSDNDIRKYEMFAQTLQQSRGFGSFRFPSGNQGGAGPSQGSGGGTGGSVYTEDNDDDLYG
Threshold 2000 nM: EC50 strictly smaller gives class 1, otherwise class 0.

Cc1cc(OCc2nnc(SC3CCCCC3)n2-c2cccnc2)ccc1-c1ccc(S(C)(=O)=O)cc1	class 0
CN1CCC(NC(=O)OCC#Cc2c(F)cc(OCc3nnc(SC4C=CCCC4)n3-c3cccnc3)cc2F)CC1 (stereo not given)	class 1
Cc1cc(OCc2nnc(SC3C=CCCC3)n2-c2cccnc2)ccc1C#CCOC(=O)N1CCN(C)CC1 (stereo not given)	class 1
Cc1cc(OCc2nnc(SC3C=CCCC3)n2-c2cccnc2)ccc1C#CCO (stereo not given)	class 1

Would you kindly look at the next entry?
Query: Given the entry CCC(=O)NCC#Cc1ccc(OCc2nnc(SC3C=CCCC3)n2-c2cccnc2)cc1C (stereo not given) , would its reported EC50 be below 2000 nM?
Response: class 1

---

experiment: Solubility of compound at pH 7.4 in PBS by UV/visible spectrophotometer analysis; assay type: physicochemical
Label Met when solubility is at or above 60 µM; otherwise label Not met.

As a guide, the following entries are already answered.
[2H]C1([2H])C([2H])([2H])C([2H])([2H])C([2H])(Sc2nnc(COc3cc(F)c(C#CCOC(=O)NC4CCN(C)CC4)cc3F)n2-c2cccnc2)C1([2H])[2H]	Met
CN1CCC(NC(=O)OCC#Cc2ccc(OCc3nnc(SC4C=CCCC4)n3-c3cccnc3)c(F)c2F)CC1 (configuration not stated)	Not met
Cc1cc(OCc2nnc(SC3C=CCCC3)n2-c2cccnc2)ccc1C#CCO (configuration not stated)	Not met
CN1CCC(NC(=O)OCC#Cc2cc(F)c(OCc3nnc(S[C@H]4C=CCCC4)n3-c3cccnc3)cc2F)CC1	Met

Would you kindly look at the next entry?
Query: Determine whether this compound has solubility no lower than 60 µM: CN1CCC(NC(=O)OCC#Cc2cc(F)c(OCc3nnc(SC4C=CCCC4)n3-c3cccnc3)cc2F)CC1 (configuration not stated)
Response: Met
